Biological target: T1, Peptide 8: Biotin-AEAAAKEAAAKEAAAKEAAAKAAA-Tyr-acid (N-terminal biotin; C-terminal acid)
T1 construct: Control peptide without PC
T1 peptide: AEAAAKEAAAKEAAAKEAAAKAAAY
Experiment: scFv ELISA
# OD450 annotations
Expressed in OD450, but write only the number.

| BINDER | VALUE_UNITS | DATA_VALUE |
| --- | --- | --- |
| PcOxP_DB03_F03 (scFv, V domains shown, scFv in periplasmic extract) VH: EVQLLESGGGLVQPGGSLRLSCAASGFTFSDQYMEWVRQAPGKGLEWVAASRNKNNDYTTEYADSVKGRFTISRDNSKNTLYLQMNSLRAEDTAVYYCARDYYGASYWYFDVWGQGTLVTVSS VL: DIVMTQSPDSLAVSLGERATINCTASQSVYSSKHKKHYLAWYQQKPGQPPKLLIYGANNRYIGVPDRFSGSGSGTDFTLTISSLQAEDVAVYYCGQFYSYPLTFGGGTKVEIK | OD450 | 0.05 |
| PcOxP_DB02_F06 (scFv, V domains shown, scFv in periplasmic extract) VH: EVQLLESGGGLVQPGGSLRLSCAASGFTFSDEYMEWVRQAPGKGLEWVAASRNKANDFTTEYADSVKGRFTISRDNSKNTLYLQMNSLRAEDTAVYYCARDFYGSSYWYFDVWGQGTLVTVSS VL: DIVMTQSPDSLAVSLGERATINCTASESIYSSKHKVHYLAWYQQKPGQPPKLLIYGASNRYIGVPDRFSGSGSGTDFTLTISSLQAEDVAVYYCAQFYSYPLTFGGGTKVEIK | OD450 | 0.04 |

Memo: PcOxP_DB03_A07 (scFv, V domains shown, scFv in periplasmic extract) VH: EVQLLESGGGLVQPGGSLRLSCAASGFHFSDFYMEWVRQAPGKGLEWVAASRNKANDYTTEYADSVKGRFTISRDNSKNTLYLQMNSLRAEDTAVYYCARDYYGSSYWYFDVWGQGTLVTVSS VL: DIVMTQSPDSLAVSLGERATINCTASENLYSSKHKVHYLAWYQQKPGQPPKLLIYGASNRYSGVPDRFSGSGSGTDFTLTISSLQAEDVAVYYCAQFYSYPLTFGGGTKVEIK , reported OD450: 0.04

Entry PcOxP_DB04_G03 (scFv, V domains shown, scFv in periplasmic extract) VH: EVQLLESGGGLVQPGGSLRLSCAASGFTTSDFYMEWVRQAPGKGLEWVAASRNKANDYTTEYADSVKGRFTISRDNSKNTLYLQMNSLRAEDTAVYYCARDYYGSSYWYFDYWGQGTLVTVSS VL: DIVMTQSPDSLAVSLGERATINCTASESLYSSKHKVHYLAWYQQKPGQPPKLLIYGASNRNIGVPDRFSGSGSGTDFTLTISSLQAEDVAVYYCAHFYSYPLTFGGGTKVEIK — recorded OD450 = 0.05

Form: binder = PcOxP_DB04_C09 (scFv, V domains shown, scFv in periplasmic extract) VH: EVQLLESGGGLVQPGGSLRLSCAASGFTFSSYYMEWVRQAPGKGLEWVAASRNKANDYTTEYADSVKGRFTISRDNSKNTLYLQMNSLRAEDTAVYYCARDYYLSSYWYFDVWGQGTLVTVSS VL: DIVMTQSPDSLAVSLGERATINCTASESLYSPKHKVHYLAWYQQKPGQPPKLLIYGAENRYIGVPDRFSGSGSGTDFTLTISSLQAEDVAVYYCAQFYSYPLTFGGGTKVEIK ; OD450 = 0.06

Documented OD450 of PcOxP_DB04_D07 (scFv, V domains shown, scFv in periplasmic extract) VH: EVQLLESGGGLVQPGGSLRLSCAASGFTFSDYYMEWVRQAPGKGLEWVAASRWKANDYTTEYADSVKGRFTISRDNSKNTLYLQMNSLRAEDTAVYYCARDYYGSSYWYFDVWGQGTLVTVSS VL: DIVMTQSPDSLAVSLGERATINCTASESLYSSKHKVHYLAWYQQKPGQPPKLLIYGASNRYIGVPDRFSGSGSGTDFTLTISSLQAEDVAVYYCAQFYTYPLTFGGGTKVEIK : 0.05

// OD450 value for PcOxP_DB02_H05 (scFv, V domains shown, scFv in periplasmic extract) VH: EVQLLESGGGLVQPGGSLRLSCAASGFTFSDFYMEWVRQAPGKGLEWVAASRNKANDYTTEYADSVKGRFTISRDNSKNTLYLQMNSLRAEDTAVYYCARDYYGSSYWYFDPWGQGTLVTVSS VL: DIVMTQSPDSLAVSLGERATINCTASESLYSSKHKVHYLAWYQQKPGQPPKLLIYGASNRYLGVPDRFSGSGSGTDFTLTISSLQAEDVAVYYCAQFYSYPLTFGGGTKVEIK : 0.04

Record PcOxP_DB02_G05 (scFv, V domains shown, scFv in periplasmic extract) VH: EVQLLESGGGLVQPGGSLRLSCAASGFTFSDFYMEWVRQAPGKGLEWVAASRNKANDYTTEYADSVKGRFTISRDNSKNTLYLQMNSLRAEDTAVYYCARDYYGSSHWYFDVWGQGTLVTVSS VL: DIVMTQSPDSLAVSLGERATINCTASESLYSSKHKLHYLAWYQQKPGQPPKLLIYGASNRYIGVPDRFSGSGSGTDFTLTISSLQAEDVAVYYCGQFYSYPLTFGGGTKVEIK . Reported OD450: 0.07

Just so you know, measured OD450 for PcOxP_DB03_E12 (scFv, V domains shown, scFv in periplasmic extract) VH: EVQLLESGGGLVQPGGSLRLSCAASGETFSDFYMEWVRQAPGKGLEWVAASRNKWNDYTTEYADSVKGRFTISRDNSKNTLYLQMNSLRAEDTAVYYCARDYYGSSYWYFDVWGQGTLVTVSS VL: DIVMTQSPDSLAVSLGERATINCTASESLYSSKHKVNYLAWYQQKPGQPPKLLIYGASNRYIGVPDRFSGSGSGTDFTLTISSLQAEDVAVYYCAQFYSYPLTFGGGTKVEIK came out at 0.06

Note to self: OD450 recorded for PcOxP_DB03_D02 (scFv, V domains shown, scFv in periplasmic extract) VH: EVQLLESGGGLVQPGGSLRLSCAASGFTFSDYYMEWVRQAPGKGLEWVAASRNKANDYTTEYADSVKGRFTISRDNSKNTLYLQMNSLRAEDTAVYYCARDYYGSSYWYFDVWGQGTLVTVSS VL: DIVMTQSPDSLAVSLGERATINCTASESLYSSKHKVHYLAWYQQKPGQPPKLLIYGATNRYIGVPDRFSGSGSGTDFTLTISSLQAEDVAVYYCAEFYSYPLTFGGGTKVEIK was 0.04
